Assay: xn = mol fraction of the nth substance listed
Conditions: 303.15 K; 100 kPa; Liquid; Cone and plate viscometry; x1 = 0.3
readout type: viscosity (mPa·s)
Give a bare numeral; the unit mPa·s is implied.

Consider the following illustrative entries.
CCCCCCCCCCCCCC[P+](CCCCCC)(CCCCCC)CCCCCC.N#Cc1ccc[n-]1 [trihexyl(tetradecyl)phosphonium 2-cyanopyrrolide] + CCCCCC[n+]1ccn(C)c1.O=S(=O)([N-]S(=O)(=O)C(F)(F)F)C(F)(F)F
129
CC(=O)[O-].CCCCCCCCCCCCCC[P+](CCCCCC)(CCCCCC)CCCCCC [trihexyl(tetradecyl)phosphonium acetate] + CCCCCC[n+]1ccn(C)c1.O=S(=O)([N-]S(=O)(=O)C(F)(F)F)C(F)(F)F
177
CCCCCCCCCCCCCC[P+](CCCCCC)(CCCCCC)CCCCCC.N#Cc1ccc[n-]1 [trihexyl(tetradecyl)phosphonium 2-cyanopyrrolide] + CCCCCCn1cc[n+](C)c1C.O=S(=O)([N-]S(=O)(=O)C(F)(F)F)C(F)(F)F
178
CCCCCCCCCCCCCC[P+](CCCCCC)(CCCCCC)CCCCCC.O=[N+]([O-])c1cn[n-]c1 [trihexyl(tetradecyl)phosphonium 4-nitropyrazolide] + CCCCCC[n+]1ccn(C)c1.O=S(=O)([N-]S(=O)(=O)C(F)(F)F)C(F)(F)F
158

Exam item: Give the measured viscosity of CCCCCCn1cc[n+](C)c1.N#Cc1ccc[n-]1 [1-hexyl-3-methylimidazolium 2-cyanopyrrolide] + CCCCCCCCCCCCCC[P+](CCCCCC)(CCCCCC)CCCCCC.O=S(=O)([N-]S(=O)(=O)C(F)(F)F)C(F)(F)F .
Marked response: 230

###

Assay: xn = mol fraction of the nth substance listed
Settings: 293.15 K; 100 kPa; Liquid; Cone and plate viscometry; x1 = 0.9
Rule: viscosity under 500 mPa·s gives criterion not met, otherwise criterion met.

Solved entries (count: 3):
CCCCCCn1cc[n+](C)c1.N#Cc1ccc[n-]1 [1-hexyl-3-methylimidazolium 2-cyanopyrrolide] + CCCCCCCCCCCCCC[P+](CCCCCC)(CCCCCC)CCCCCC.O=S(=O)([N-]S(=O)(=O)C(F)(F)F)C(F)(F)F
criterion not met
CCCCCCCC[P+](CC)(CC)CC.O=[N+]([O-])c1cn[n-]c1 [triethyloctylphosphonium 4-nitropyrazolide] + CCCCCCn1cc[n+](C)c1C.O=S(=O)([N-]S(=O)(=O)C(F)(F)F)C(F)(F)F
criterion not met
CCCCCCCCCC[P+](CC)(CC)CC.O=[N+]([O-])c1cn[n-]c1 [decyltriethylphosphonium 4-nitropyrazolide] + CC[P+](CC)(CC)COCCOC.O=S(=O)([N-]S(=O)(=O)C(F)(F)F)C(F)(F)F
criterion not met

Shift focus to the following entry.
Exam item: In plain terms: is recorded viscosity at least 500 mPa·s for CCCCCCn1cc[n+](C)c1.O=[N+]([O-])c1cn[n-]c1 [1-hexyl-3-methylimidazolium 4-nitropyrazolide] + CCCCCCCCCCCCCC[P+](CCCCCC)(CCCCCC)CCCCCC.O=S(=O)([N-]S(=O)(=O)C(F)(F)F)C(F)(F)F ?
Marked response: criterion met

###

Some compounds, each annotated with its measured viscosity.
Assay: xn = mol fraction of the nth substance listed
Details: 298.15 K; 100 kPa; Liquid; Cone and plate viscometry; x1 = 0.2
Numbers after ± are expanded uncertainties.
For clarity, give the value followed by its unit.

Examples with their reported viscosity follow.
CCCCCCn1cc[n+](C)c1.N#Cc1ccc[n-]1 [1-hexyl-3-methylimidazolium 2-cyanopyrrolide] + CCCCCCCCCCCCCC[P+](CCCCCC)(CCCCCC)CCCCCC.O=S(=O)([N-]S(=O)(=O)C(F)(F)F)C(F)(F)F
320 ± 40 mPa·s
CCCCCCCCCCCCCC[P+](CCCCCC)(CCCCCC)CCCCCC.N#Cc1ccc[n-]1 [trihexyl(tetradecyl)phosphonium 2-cyanopyrrolide] + CCCCCC[n+]1ccn(C)c1.O=S(=O)([N-]S(=O)(=O)C(F)(F)F)C(F)(F)F
144 ± 18 mPa·s
CCCCCCCCCCCCCC[P+](CCCCCC)(CCCCCC)CCCCCC.O=S(=O)([N-]S(=O)(=O)C(F)(F)F)C(F)(F)F + CCCCCC[n+]1ccn(C)c1.O=S(=O)([N-]S(=O)(=O)C(F)(F)F)C(F)(F)F
118 ± 14 mPa·s

Now for the compound whose viscosity we want.
Exam item: Fill in: viscosity of CCCCCCCCCCCCCC[P+](CCCCCC)(CCCCCC)CCCCCC.O=[N+]([O-])c1cn[n-]c1 [trihexyl(tetradecyl)phosphonium 4-nitropyrazolide] + CCCCCC[n+]1ccn(C)c1.O=S(=O)([N-]S(=O)(=O)C(F)(F)F)C(F)(F)F is ___
Marked response: 144 ± 18 mPa·s
